Exercise: state measured pIC50 for each of the binders provided.
testSystem: HLA-DQ molecule DQB1*0202 (human)
protocolSummary: inhibition of radiolabeled peptide binding to purified HLA
Answer as the number alone; pIC50 is minus log10 of concentration in mol/L.

Q: Provide pIC50 value for the following binder: YQIAFSRGNRAFIAI [Der p 4 peptide 3324.0980 (position 411)]
Ans: 5.06

Q: Provide pIC50 value for the following binder: SGVAATESAYLAYRN [Der p 1 peptide 3324.0829 (position 136)]
Ans: 6.06

Q: Provide pIC50 value for the following binder: PSVIPAARLFKAFIL [Aln g 1 peptide 3324.0004 (position 11)]
Ans: 4.95

Q: Provide pIC50 value for the following binder: SRGNRAFIAINLQKN [Der p 4 peptide 3324.0974 (position 416)]
Ans: 5.13

Q: Provide pIC50 value for the following binder: IEFRFYKEITNVFRG [Der p 4 peptide 3324.0976 (position 251)]
Ans: 5.21

Q: Provide pIC50 value for the following binder: EIYNMVKFRMIAGQE [Der p 4 peptide 3324.0978 (position 386)]
Ans: 4.54
